test system: rice; assay: Test B preemergence/postemergence greenhouse plant response rating 0 to 10; format: in vivo, Oryza sativa; settings: POSTEMERGENCE, Rate 50 g/ha; 0 to 10 scale
Listed compounds paired with reported Plant response rating, Rice
Reply briefly: the number, and no unit.

Plant response rating, Rice for CON=C(C)c1cc(-c2nn3c(c2Cl)CCCC3)c(F)cc1Cl ? 4

Also C#CCN1C(=O)COc2cc(F)c(-c3nn4c(c3Br)CCCC4)cc21 ? 4

Also CC(C)COc1cc(-c2nn3c(c2Cl)CCCC3)c(F)cc1Cl ? 5

Others:
Plant response rating, Rice for CCOC(=O)COc1cc(-c2nn3c(c2Cl)CCCC3)c(F)cc1Cl ? 4

Also CCCN1C(=O)COc2cc(F)c(-c3nn4c(c3Cl)CCCC4)cc21 ? 7

====

Listed compounds paired with reported Plant response rating, Sugar beet
test system: sugar beet; experiment: Test B preemergence/postemergence greenhouse plant response rating 0 to 10; format: in vivo, Beta vulgaris; conditions: POSTEMERGENCE, Rate 50 g/ha; 0 to 10 scale
Reply briefly: the number, and no unit.

Check out these entries, answers already filled in.
Plant response rating, Sugar beet for Fc1cc(Cl)ccc1-c1nn2c(c1Br)CCCC2 ? 10

Also C=CCOC(=O)COc1cc(-c2nn3c(c2Cl)CCCC3)c(F)cc1Cl ? 10

Others:
Plant response rating, Sugar beet for CON=C(C)c1cc(-c2nn3c(c2Cl)CCCC3)c(F)cc1Cl ? 10

====

tested on: downy brome; experiment: Test C preemergence/postemergence greenhouse plant response rating 0 to 100; assay type: in vivo, Bromus tectorum; conditions: POSTEMERGENCE, 62 g/ha, 0 to 100 scale
Listed molecules paired with reported Plant response rating Downy Brome
Reply briefly: the number, and no unit.

Plant response rating Downy Brome for COC(=O)C(C)Oc1cc(-c2nn3c(c2Cl)CCCC3)c(F)cc1Cl (stereo not drawn) ? 60

Also C=CCN1C(=O)COc2cc(F)c(-c3nn4c(c3Br)CCCC4)cc21 ? 50

Also C#CC(C)Oc1cc(-c2nn3c(c2Cl)CCCC3)c(F)cc1Cl (stereo not drawn) ? 40

Also C#CC(C)Oc1cc(-c2nn3c(c2Br)CCCC3)c(F)cc1Cl (stereo not drawn) ? 60

Also CC(C)COc1cc(-c2nn3c(c2Cl)CCCC3)c(F)cc1Cl ? 60

Also C#CCN1C(=O)COc2cc(F)c(-c3nn4c(c3Cl)CCCC4)cc21 ? 50

====

Listed compounds paired with reported Plant response rating (0 to 100), Barley Igri
tested on: barley; test: Test C preemergence/postemergence greenhouse plant response rating 0 to 100; type: in vivo, Hordeum vulgare; conditions: POSTEMERGENCE; Rate 1 g/ha

Check out these entries, answers already filled in.
Plant response rating (0 to 100), Barley Igri for C#CC(C)N1C(=O)COc2cc(F)c(-c3nn4c(c3Cl)CCCC4)cc21 (stereo not shown) ? 0

Also C=CCN1C(=O)COc2cc(F)c(-c3nn4c(c3Cl)CCCC4)cc21 ? 20

Also COCN1C(=O)COc2cc(F)c(-c3nn4c(c3Br)CCCC4)cc21 ? 20

Continue with the next compound.
Plant response rating (0 to 100), Barley Igri for CC(C)Oc1cc(-c2nn3c(c2Br)CCCC3)c(F)cc1Cl ? 10

====

test system: lambsquarters; experiment: Test B preemergence/postemergence greenhouse plant response rating 0 to 10; type: in vivo, Chenopodium album; details: Rate 200 g/ha, PREEMERGENCE; 0 to 10 scale
READOUT: Plant response rating, Lambsquarter
Reply briefly: the number, and no unit.

Check out these entries, answers already filled in.
Plant response rating, Lambsquarter for CCS(=O)(=O)Oc1cc(-c2nn3c(c2Cl)CCCC3)c(F)cc1Cl ? 10

Also Fc1cc(Cl)c(OC2CCCC2)cc1-c1nn2c(c1Cl)CCCC2 ? 10

Also C#CCOc1cc(-c2nn3c(c2Br)CCCC3)c(F)cc1Cl ? 10

Also CC(C)OC(=O)COc1cc(-c2nn3c(c2Cl)CCCC3)c(F)cc1Cl ? 10

Also C=CCOc1cc(-c2nn3c(c2Br)CCCC3)c(F)cc1Cl ? 10

Continue with the next compound.
Plant response rating, Lambsquarter for CCCOc1cc(-c2nn3c(c2Cl)CCCC3)c(F)cc1Cl ? 10

Reference for the values: patent US6358885B1
